Entries annotated with measured %Inh
System: MAST1
Conditions: concentration: 1 μM, replicates: in singlicate; n = 1;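 note: KINOMEscan kinase panel screen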
Give the quantity in %, number only.

O=S(=O)(c1ccc(-c2ccnc3[nH]ccc23)cc1)N1CCCC1 = 0
O=C(Nc1n[nH]c2cc(-c3cccc(F)c3F)ccc12)C1CC1 = 18
Cl.O=C(Nc1cccc(-c2nn3ncccc3c2-c2ccnc(Nc3cccnc3)n2)c1)c1c(F)cccc1F = 6

Next:
*Q* Identify %Inh associated with the molecule COc1ccc(CNC(=O)NC2CCN(c3ccnc(Nc4cc(OC)c(OC)c(OC)c4)n3)C2)cc1 (stereo not shown)
*A* 13

====

Tested on: CSNK1G2
Details: concentration: 1 μM, replicates: in singlicate; n = 1
Measured %Inh values are reported for all entries that follow.
API: value field is a number in %; no unit string.

Some entries whose results are on file:
Cn1ccc2ncnc(Oc3ccc(Nc4nc5ccccc5[nH]4)cc3)c21 = 0
Fc1cccc(COc2nnc(-c3ccc4c(c3)CCO4)o2)c1 = 4
COc1ccc(C2=C(Nc3cccc(C(=O)O)c3)C(=O)NC2=O)cc1 = 0
Cc1c(Cn2ccn3c(=O)cc(N4CCOCC4)nc23)cccc1C(F)(F)F = 5
COc1cc2ncnc(Nc3ccc4nc(-c5ccccc5)[nH]c4c3)c2cc1OC.Cl = 0
Cc1cccc(-c2nc(C)cc(Nc3ccncc3)n2)n1 = 0
CCn1c(-c2cccnc2O)nc2cnccc21 = 0
O=C(Nc1ccc2c(c1)OCO2)NC1CCN(c2ccnc(Nc3ccc(F)cc3)n2)C1 (stereo not drawn) = 0
Cc1cccc(-c2nc(Nc3ccncc3)c3ccccc3n2)n1 = 20
Cc1ccc(C(=O)Nc2ccc(Nc3ccnc4cc(-c5ccccn5)ccc34)cc2O)cc1.Cl = 0

*Q* Provide one value: measured %Inh of COc1cc(Nc2nccc(N3CCC(NC(=O)Nc4cc(C)ccc4C)C3)n2)cc(OC)c1OC (stereo not drawn)
*A* 0

*Q* Recall and state the measured %Inh for COc1ccccc1-c1ccc2c(NC(=O)C3CC3)n[nH]c2n1 .
*A* 5

====

Test system: PDPK1
Details: concentration: 1 μM, replicates: in singlicate; n = 1
READOUT_KIND: %Inh (%)
Write it as a number; the unit % goes unstated.

Here's what some known entries look like.
CS(=O)(=O)c1ccc(-c2c(-c3ncn[nH]3)sc(N3CCOCC3)c2C#N)cc1 = 0
COc1ccc(Nc2nccc(-c3cccc(NC(=O)c4cc5cc(F)ccc5[nH]4)c3)n2)cc1 = 21
Fc1cc(Cl)ccc1Nc1ccnc2cc(-c3ccc(CN4CCCCC4)o3)ccc12 = 100

Now for a further compound.
*Q* Return %Inh (reported value) for this compound: Cl.Oc1ccc(-c2nc(-c3ccccc3)[nH]c2-c2ccncc2)cc1
*A* 0

====

Test system: p38-alpha
Construct: gene MAPK14
Details: concentration: 1 μM, replicates: in singlicate; n = 1
Recorded %Inh values for a group of compounds are listed next.
Could you give me the number in %? Just the number is fine.

Worked cases, answers included:
CN(C)CCN(C)C(=O)c1cc(-c2ccncc2)c(-c2ccc(Cl)c(O)c2)o1.Cl.Cl = 82
COc1ccc(Nc2nccc(-c3cccc(NC(=O)c4cc5cc(F)ccc5[nH]4)c3)n2)cc1 = 27
CC(C)(C)c1ccc(C(=O)Nc2cn3cc(-c4cccnc4)ccc3n2)cc1 = 1

*Q* Annotate the compound Cc1c(Cn2ccn3c(=O)cc(N4CCOCC4)nc23)cccc1C(F)(F)F with its measured %Inh.
*A* 0
